# GI50 values compiled below
System: H929 human cancer cell lines
ASSAY OVERVIEW: Cellular viability / proliferation (Cell TiterGlo, 72 h)
Type: cell-based
EXPERIMENTAL PARAMETERS: Homo sapiens, NCI-H929, 72 h, read-out: GI50 on cellular proliferation of H929 human cancer cell lines, H929 cells, 72 h, Cell TiterGlo, 10% FBS
PROPERTY MEASURED: GI50 (nM)

> print(dat)
                                smiles.code                   test.target  value.comparator   val
1  Cc1cc(OCCCc2c3n(c4c(-c5c(C)nn(C)c5C)c(Cl)ccc24)[C@H](C)CN(c2cn(C)c4ccc(C(=O)O)cc24)C3=O)cc(C)c1Cl  H929 human cancer cell lines                 <   200
2  Cc1cc(OCCCc2c3n(c4c(-c5c(C)nn(C)c5C)c(Cl)ccc24)[C@H](C)CN(c2cn(C)c4ccc(-c5nnco5)cc24)C3=O)cc(C)c1Cl  H929 human cancer cell lines                 =  1600
3  Cc1cc(OCCCc2c3n(c4c(-c5c(C)nn(C)c5C)c(Cl)ccc24)[C@H](C)CN(c2cn(CCN4CCCC4)c4ccc(-c5ncn(C)n5)cc24)C3=O)cc(C)c1Cl  H929 human cancer cell lines                 =   400

* * *

# GI50 values compiled below
Test system: H929 human cancer cell lines
ASSAY OVERVIEW: Cellular viability / proliferation (Cell TiterGlo, 72 h)
Type: cell-based
EXPERIMENTAL PARAMETERS: Homo sapiens, NCI-H929, 72 h, read-out: GI50 on cellular proliferation of H929 human cancer cell lines, H929 cells, 72 h, Cell TiterGlo, 10% FBS
PROPERTY MEASURED: GI50 (nM)

SMILES CODE	TEST TARGET	MEASUREMENT UNITS	VAL
Cc1ccnc(Cn2c(C(=O)O)cc3cc(OC(F)(F)F)cc(N4C[C@@H](C)n5c(c(CCCOc6cc(C)c(Cl)c(C)c6)c6ccc(Cl)c(-c7c(C)nn(C)c7C)c65)C4=O)c32)c1	H929 human cancer cell lines	nM	1200
Cc1cc(OCCCc2c3n(c4c(-c5c(C)nc(CN6CCN(C)C(=O)C6)nc5C)c(Cl)ccc24)[C@H](C)CN(c2cn(C)c4ccc(C(=O)O)cc24)C3=O)cc(C)c1Cl	H929 human cancer cell lines	nM	210
COCCn1c(C(=O)O)cc2cccc(N3C[C@@H](C)n4c(c(CCCOc5cc(C)c(Cl)c(C)c5)c5ccc(Cl)c(-c6c(C)nn(C)c6C)c54)C3=O)c21	H929 human cancer cell lines	nM	270
Cc1cc(OCCCc2c3n(c4c(-c5c(C)nn(C)c5C)c(Cl)ccc24)[C@H](C)CN(c2cn(C)c4ccc(C(=O)NO)cc24)C3=O)cc(C)c1Cl	H929 human cancer cell lines	nM	290
Cc1cc(OCCCc2c3n(c4c(-c5c(C)nn(C)c5C)c(Cl)ccc24)[C@H](C)CN(c2cn(C)c4ccc(-c5nn[nH]n5)nc24)C3=O)cc(C)c1Cl	H929 human cancer cell lines	nM	330

* * *

Tested on: H929 human cancer cell lines
ASSAY OVERVIEW: Cellular viability / proliferation (Cell TiterGlo, 72 h)
Format: cell-based
EXPERIMENTAL PARAMETERS: Homo sapiens, NCI-H929, 72 h, read-out: GI50 on cellular proliferation of H929 human cancer cell lines, H929 cells, 72 h, Cell TiterGlo, 10% FBS
param class (str): category from GI50; see ranges low group = under 1000 nM, middle group = from 1000 nM up to 4000 nM, high group = 4000 nM and over

COMPOUND	TEST TARGET	CATEGORY LABEL
Cc1cc(OCCCc2c3n(c4c(-c5c(C)nn(C)c5C)c(Cl)ccc24)[C@H](C)CN(c2cn(C)c4c(C(=O)O)cccc24)C3=O)cc(C)c1Cl [Example 75]	H929 human cancer cell lines	middle group
Cc1cc(OCCCc2c3n(c4c(-c5c(C)nn(C)c5C)c(Cl)ccc24)[C@H](C)CN(c2cn(C)c4cc(-c5nnn(C)n5)ccc24)C3=O)cc(C)c1Cl [Example 370]	H929 human cancer cell lines	high group
Cc1cc(OCCCc2c3n(c4c(-c5c(C)nn(C)c5C)c(Cl)ccc24)CCCN(c2cc(C(=O)O)cc4nn(C)cc24)C3=O)cc(C)c1Cl [Example 36]	H929 human cancer cell lines	middle group
Cc1cc(OCCCc2c3n(c4c(-c5c(C)nn(C)c5C)c(Cl)ccc24)[C@H](C)CN(c2cccc4c(C(=O)O)n(C)nc24)C3=O)cc(C)c1Cl [Example 54]	H929 human cancer cell lines	low group
Cc1cc(OCCCc2c3n(c4c(-c5c(C)nn(C)c5C)c(Cl)ccc24)[C@H](C)CN(c2cn4cccc(C(=O)O)c4n2)C3=O)cc(C)c1Cl [Example 112]	H929 human cancer cell lines	high group
Cc1cc(OCCCc2c3n(c4c(-c5c(C)ncnc5C)c(Cl)ccc24)[C@H](C)CN(c2cn(C)c4ncc(C(=O)O)nc24)C3=O)cc(C)c1Cl [Example 644]	H929 human cancer cell lines	middle group
COCCOCCOc1cc(N2C[C@@H](C)n3c(c(CCCOc4cc(C)c(Cl)c(C)c4)c4ccc(Cl)c(-c5c(C)ncnc5C)c43)C2=O)c2c(c1)cc(C(=O)O)n2C [Example 631]	H929 human cancer cell lines	low group
Cc1cc(OCCCc2c3n(c4c(-c5c(C)nn(C)c5C)c(Cl)ccc24)[C@H](C)CN(c2ccnc4ccc(-c5nn[nH]n5)cc24)C3=O)cc(C)c1Cl [Example 414]	H929 human cancer cell lines	middle group
Cc1cc(OCCCc2c3n(c4c(-c5c(C)nn(C)c5C)c(Cl)ccc24)CCCN(c2cc(C(=O)O)cc4nn(CCN(C)C)cc24)C3=O)cc(C)c1Cl [Example 28]	H929 human cancer cell lines	middle group
Cc1cc(OCCCc2c3n(c4c(-c5c(C)cc(O)cc5C)c(Cl)ccc24)[C@H](C)CNC3=O)cc(C)c1Cl [Example 488]	H929 human cancer cell lines	high group
Cc1nn(C)c(C)c1-c1c(Cl)ccc2c(CCCOc3cccc4ccccc34)c3n(c12)[C@H](C)CN(c1cn(C)c2ccc(C(=O)O)cc12)C3=O [Example 545]	H929 human cancer cell lines	low group
Cc1cc(N2C[C@@H](C)n3c(c(CCCOc4cc(C)c(Cl)c(C)c4)c4ccc(Cl)c(-c5c(C)nn(C)c5C)c43)C2=O)c2c(c1)cc(C(=O)O)n2CC(=O)N(C)C [Example 596]	H929 human cancer cell lines	middle group

* * *

TEST TARGET: Mcl-1 (Homo sapiens (Human))
Sequence (Q07820 172-327): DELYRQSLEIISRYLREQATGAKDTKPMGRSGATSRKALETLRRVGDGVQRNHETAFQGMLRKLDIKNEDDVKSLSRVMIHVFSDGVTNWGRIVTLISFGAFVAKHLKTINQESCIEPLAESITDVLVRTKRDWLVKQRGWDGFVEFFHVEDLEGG
ASSAY OVERVIEW: Fluorescence polarization anisotropy (FPA) competition assay, FITC-Bak or FITC-Bim BH3 peptide
Format: binding
EXPERIMENTAL PARAMETERS: read-out: Ki for Inhibition of Mcl-1 by FPA assay
pKi: −log10 of the molar value.
PROPERTY MEASURED: pKi

> print(dat)
                                smiles.code  property.measured   val
1  COc1cccc(Cn2c(C(=O)O)cc3cccc(N4C[C@@H](C)n5c(c(CCCOc6cc(C)c(Cl)c(C)c6)c6ccc(Cl)c(-c7c(C)nn(C)c7C)c65)C4=O)c32)n1                pKi  8.60
2  CC[C@@H]1Cn2c(c(CCCOc3cc(C)c(Cl)c(C)c3)c3ccc(Cl)c(-c4c(C)nn(C)c4C)c32)C(=O)N1c1cc(C(=O)O)c2c(ccn2C)c1                pKi  8.74
3  Cc1cc(OCCCc2c3n(c4c(-c5c(C)nn(C)c5C)c(Cl)ccc24)[C@H](C)CN(c2cc(OC(F)(F)F)cc4cc(C(=O)O)[nH]c24)C3=O)cc(C)c1Cl                pKi  8.66
4  Cc1cc(OCCCc2c3n(c4c(-c5c(C)nn(C)c5C)c(Cl)ccc24)[C@H](C)CN(c2cn(CCN4CCOCC4)c4cc(C(N)=O)ccc24)C3=O)cc(C)c1Cl                pKi  8.31
5  Cc1cc(N2C[C@@H](C)n3c(c(CCCOc4cc(C)c(Cl)c(C)c4)c4ccc(Cl)c(-c5c(C)nn(C)c5C)c43)C2=O)c2c(c1)cc(C(N)=O)n2Cc1ccccn1                pKi  8.47

* * *

TEST TARGET: UniProt:Q07820
ASSAY OVERVIEW: TR-FRET binding assay, FITC-Bak peptide and MBP-tagged Mcl-1
EXPERIMENTAL PARAMETERS: read-out: Ki for Inhibition of Mcl-1 by TR-FRET assay
PROPERTY MEASURED: Ki (nM)

COMPOUND	PROPERTY MEASURED	VALUE COMPARATOR	VAL
Cc1ccnc(Cn2c(C(=O)O)cc3cc(C)cc(N4C[C@@H](C)n5c(c(CCCOc6cc(C)c(Cl)c(C)c6)c6ccc(Cl)c(-c7c(C)ncnc7C)c65)C4=O)c32)c1 [Example 577]	Ki	<	0.2
Cc1cc(OCCCc2c3n(c4c(-c5c(C)nn(C)c5C)c(Cl)ccc24)[C@H](C)CN(c2cc(OCCOC(C)C)cc4c(C(=O)O)cn(Cc5ccccn5)c24)C3=O)cc(C)c1Cl [Example 606]	Ki	=	0.47
Cc1cc(OCCCc2c3n(c4c(-c5c(C)ncnc5C)c(Cl)ccc24)[C@H](C)CN(c2cc(OCCN4CCOCC4)cc4cc(C(=O)O)n(C)c24)C3=O)cc(C)c1Cl [Example 558]	Ki	<	0.2
Cc1cc(OCCCc2c3n(c4c(-c5c(C)nn(C)c5C)c(Cl)ccc24)[C@H](C)CN(c2cn(CC(=O)N4CCOCC4)c4ccc(-c5ncn(C)n5)cc24)C3=O)cc(C)c1Cl [Example 525]	Ki	=	0.41
Cc1cc(OCCCc2c3n(c4c(-c5c(C)nn(C)c5C)c(Cl)ccc24)[C@H](C)CN(c2cn(CCN4CCCC4)c4ccc(-c5ncccn5)cc24)C3=O)cc(C)c1Cl [Example 567]	Ki	=	9.6
